# Study target: human pol II (Homo sapiens, UniProt P24928+P30876)
# Assay procedure: in vitro transcription reaction, RNA polymerase inhibition
# Format: biochemical
Property label: IC50 (µM)

>  <Molecule>
NCCNc1ccc([N+](=O)[O-])c(N2CCN(c3ccc([N+](=O)[O-])cc3)CC2)c1 [Compound (B)]

>  <Study target>
human pol II (Homo sapiens, UniProt P24928+P30876)

>  <Property label>
IC50

>  <Reported measurement>
104

$$$$

====

# Study target: purified RNA polymerase derived from E. coli (Escherichia coli, UniProt P0A7Z4+P0A8T7+P0A8V2)
# Sequence (P0A8V2 whole entry): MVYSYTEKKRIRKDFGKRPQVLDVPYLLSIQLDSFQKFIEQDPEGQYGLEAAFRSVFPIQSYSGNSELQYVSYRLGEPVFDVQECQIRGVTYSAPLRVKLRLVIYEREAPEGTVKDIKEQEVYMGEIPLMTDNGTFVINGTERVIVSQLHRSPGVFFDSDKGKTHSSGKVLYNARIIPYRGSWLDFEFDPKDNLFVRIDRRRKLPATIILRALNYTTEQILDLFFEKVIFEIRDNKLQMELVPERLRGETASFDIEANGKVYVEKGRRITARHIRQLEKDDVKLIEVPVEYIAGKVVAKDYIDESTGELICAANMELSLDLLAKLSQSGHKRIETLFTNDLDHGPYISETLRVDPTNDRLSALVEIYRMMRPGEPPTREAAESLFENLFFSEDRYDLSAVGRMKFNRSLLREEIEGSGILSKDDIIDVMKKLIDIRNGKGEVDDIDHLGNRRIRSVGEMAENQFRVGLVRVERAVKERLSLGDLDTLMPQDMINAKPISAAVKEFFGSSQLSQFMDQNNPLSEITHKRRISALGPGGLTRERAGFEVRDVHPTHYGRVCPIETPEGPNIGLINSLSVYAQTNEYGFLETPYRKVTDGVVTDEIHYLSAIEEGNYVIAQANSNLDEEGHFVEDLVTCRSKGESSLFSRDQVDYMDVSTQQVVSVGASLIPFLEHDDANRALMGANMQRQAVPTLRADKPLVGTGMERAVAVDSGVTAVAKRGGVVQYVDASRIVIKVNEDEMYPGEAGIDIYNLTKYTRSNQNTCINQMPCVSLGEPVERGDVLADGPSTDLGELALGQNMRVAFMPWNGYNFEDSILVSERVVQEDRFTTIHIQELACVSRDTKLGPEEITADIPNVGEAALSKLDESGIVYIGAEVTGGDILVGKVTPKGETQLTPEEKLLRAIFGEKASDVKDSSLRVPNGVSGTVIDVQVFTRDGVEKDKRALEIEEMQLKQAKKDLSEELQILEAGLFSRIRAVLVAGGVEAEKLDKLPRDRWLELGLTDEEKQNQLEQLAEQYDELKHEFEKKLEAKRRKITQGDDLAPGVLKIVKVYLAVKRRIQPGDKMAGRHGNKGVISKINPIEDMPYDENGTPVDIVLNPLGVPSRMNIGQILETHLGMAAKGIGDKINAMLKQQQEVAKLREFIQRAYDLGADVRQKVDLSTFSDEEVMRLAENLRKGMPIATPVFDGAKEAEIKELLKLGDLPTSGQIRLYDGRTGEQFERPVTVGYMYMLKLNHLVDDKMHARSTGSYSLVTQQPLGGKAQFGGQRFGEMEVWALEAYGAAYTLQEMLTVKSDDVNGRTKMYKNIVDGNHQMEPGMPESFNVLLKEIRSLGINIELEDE
# Sequence (P0A8T7 whole entry): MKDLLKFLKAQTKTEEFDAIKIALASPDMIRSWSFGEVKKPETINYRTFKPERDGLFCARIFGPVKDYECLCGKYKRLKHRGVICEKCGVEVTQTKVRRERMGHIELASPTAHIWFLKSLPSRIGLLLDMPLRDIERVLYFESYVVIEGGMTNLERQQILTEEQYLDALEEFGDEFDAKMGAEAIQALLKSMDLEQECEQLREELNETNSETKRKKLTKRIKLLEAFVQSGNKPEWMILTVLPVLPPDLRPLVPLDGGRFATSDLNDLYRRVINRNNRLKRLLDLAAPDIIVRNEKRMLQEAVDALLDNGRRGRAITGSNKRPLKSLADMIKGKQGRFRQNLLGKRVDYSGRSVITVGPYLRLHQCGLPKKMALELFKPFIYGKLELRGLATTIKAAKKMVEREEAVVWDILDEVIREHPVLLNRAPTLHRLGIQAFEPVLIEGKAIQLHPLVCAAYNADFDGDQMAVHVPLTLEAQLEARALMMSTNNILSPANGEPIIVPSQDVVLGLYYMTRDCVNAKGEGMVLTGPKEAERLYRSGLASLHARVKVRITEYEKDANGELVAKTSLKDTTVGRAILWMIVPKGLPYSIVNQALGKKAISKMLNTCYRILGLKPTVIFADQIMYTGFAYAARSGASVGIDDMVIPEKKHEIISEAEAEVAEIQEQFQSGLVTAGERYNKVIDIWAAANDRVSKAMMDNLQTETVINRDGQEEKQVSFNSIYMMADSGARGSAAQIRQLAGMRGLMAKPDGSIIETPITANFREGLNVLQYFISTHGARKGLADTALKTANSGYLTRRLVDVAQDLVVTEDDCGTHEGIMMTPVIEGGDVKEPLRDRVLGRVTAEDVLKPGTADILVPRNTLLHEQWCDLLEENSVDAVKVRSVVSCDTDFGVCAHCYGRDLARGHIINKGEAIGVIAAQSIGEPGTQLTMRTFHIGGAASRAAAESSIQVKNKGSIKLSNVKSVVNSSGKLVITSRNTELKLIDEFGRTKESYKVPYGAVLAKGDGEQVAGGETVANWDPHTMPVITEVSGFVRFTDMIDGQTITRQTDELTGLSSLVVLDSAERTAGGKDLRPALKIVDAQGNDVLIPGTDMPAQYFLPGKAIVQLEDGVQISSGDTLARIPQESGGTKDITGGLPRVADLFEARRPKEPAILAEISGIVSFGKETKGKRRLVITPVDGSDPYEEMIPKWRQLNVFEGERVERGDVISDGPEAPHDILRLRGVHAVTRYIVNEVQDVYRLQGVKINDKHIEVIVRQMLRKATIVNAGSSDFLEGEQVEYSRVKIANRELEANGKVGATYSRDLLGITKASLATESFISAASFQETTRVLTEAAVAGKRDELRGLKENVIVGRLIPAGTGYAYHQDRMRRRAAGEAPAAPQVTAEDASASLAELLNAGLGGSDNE
# Sequence (P0A7Z4 whole entry): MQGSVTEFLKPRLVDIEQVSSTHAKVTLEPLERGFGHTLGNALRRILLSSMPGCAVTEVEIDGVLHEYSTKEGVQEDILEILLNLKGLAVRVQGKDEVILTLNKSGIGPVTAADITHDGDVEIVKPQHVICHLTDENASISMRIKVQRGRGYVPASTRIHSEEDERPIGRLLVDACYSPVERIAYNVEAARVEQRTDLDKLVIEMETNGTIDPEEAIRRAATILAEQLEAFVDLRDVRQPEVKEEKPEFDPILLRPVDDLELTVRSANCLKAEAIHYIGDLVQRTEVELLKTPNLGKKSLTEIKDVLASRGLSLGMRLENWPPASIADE
# Assay procedure: in vitro transcription reaction, RNA polymerase inhibition
# Type: biochemical

>  <Query smiles>
NCCNc1ccc([N+](=O)[O-])c(N2CCN(c3ccc([N+](=O)[O-])cc3)CC2)c1

>  <IC50 [µM]>
23.3

$$$$

These data points were gathered from patent US6194399A.
